ASSAY OVERVIEW: qHTS Assay to Identify Small Molecule Activators of BRCA1 Expression; note: nearly all actives have a fitted effect of over 80% in size
CONDITION NOTES: MCF7-BRCA1-FFLuc reporter, luminescence, 48 h; series mostly up to 46.1 µM
The campaign covered roughly 380,000 compounds. About 4,000 (1.1%) were called active. Not shown: some 3% with an inconclusive outcome. Calls come from the whole dose curve; as a rule, active = well fitted activation curve with a large enough effect; inconclusive = small, poorly fitted or top-dose-only effect; inactive = no such curve, though single readings can be large or run the other way. The sample holds actives, similar compounds and a random draw of the others, so the mix is not that of the screen.
Choose one outcome from this list and give only that: active, inactive

Given CCc1nnc(NC(=O)CCC(=O)NCc2ccccc2OC)s1 , state the outcome it received in this test.
inactive

Given CCc1c(C)sc(NC(=O)c2cccs2)c1C(N)=O , state the outcome it received in this test.
active

Given COc1ccc2c(c1)c(=O)c(C(=O)c1ccccc1)cn2CC(=O)Nc1ccc2c(c1)OCCO2 , state the outcome it received in this test.
inactive

Given CCc1nnc(NC(=O)C2CCCN2S(=O)(=O)c2ccccc2)s1 (stereo unspecified) , state the outcome it received in this test.
inactive

Given CCCCNC(=O)c1ccc2c(c1)NC(=O)C(C(C)C)N2 (stereo unspecified) , state the outcome it received in this test.
inactive

Given Cc1nc(NC(=O)C23CCC(C)(C(=O)O2)C3(C)C)sc1C (stereo unspecified) , state the outcome it received in this test.
inactive

Given CCc1nnc(NC(=O)c2cccs2)s1 , state the outcome it received in this test.
active

Given CCn1cc(C(=O)NCCc2ccccc2)c(=O)c2cc(S(=O)(=O)N3CCCCCC3)ccc21 , state the outcome it received in this test.
inactive

Given CCOC(=O)CSc1nnc(CNC(=O)c2cccs2)n1-c1ccccc1 , state the outcome it received in this test.
inactive

Given CCN(CC)CCNC(=O)c1cc2c(=O)oc3ccc(C)cc3c2s1 , state the outcome it received in this test.
inactive

Given CCOc1ccc(NC(=O)Cn2c(=O)n(CCCC(=O)NCc3ccc4c(c3)OCO4)c(=O)c3ccccc32)cc1 , state the outcome it received in this test.
inactive

Origin of the recorded values: PubChem BioAssay AID624202
